# Tested on: HTT
# experiment description: RT-qPCR splicing assay, HTT AJ/CJ mRNA
# Assay type: cell-based, human
# measurement conditions: Homo sapiens, 24 h, decrease in canonical junction mRNA, A673 or K562 cells
Provide the reported IC50 of each item.

Noted for CN(c1ccc2c(n1)OCc1cc(-c3cn[nH]c3)ccc1-2)C1CC2CC(F)(F)C(C1)N2 (stereo not shown) : its IC50 reads 0.1 to 1 µM

Noted for [2H]C([2H])([2H])N(c1ccc2c(n1)OCc1cc(-n3cccn3)ccc1-2)[C@@H]1C[C@H]2CC[C@@H](C1)N2 : its IC50 reads 0.1 to 1 µM

Noted for COc1cc(-c2ccc3c(c2)COc2nc(N4CCC(N)CC4)ccc2-3)cnn1 : its IC50 reads 1 to 10 µM

Noted for CN(c1ccc2c(n1)OCCc1cc(-c3cn[nH]c3)ccc1-2)[C@@H]1C[C@H]2CC[C@@H](C1)N2 : its IC50 reads 1 to 10 µM

Noted for c1cnn(-c2ccc3c(c2)COc2nc(N4CCC5(CCNCC5)C4)ccc2-3)c1 : its IC50 reads > 10 µM

Noted for COc1cc(-c2ccc3c(c2)COc2nc(OC4CC(C)(C)NC(C)(C)C4)ccc2-3)cnn1 : its IC50 reads < 0.1 µM

Noted for COc1cc(-c2ccc3c(c2)COc2nc(N4CC[C@H](NC(C)(C)C)C4)ccc2-3)cnn1 : its IC50 reads < 0.1 µM

---

# Tested on: HTT
# experiment description: Gene panel canonical junction qPCR assay, HTT CJ mRNA (Table 7)
# Assay type: cell-based, human
# measurement conditions: Homo sapiens, read-out: HTT CJ mRNA decrease IC50
Provide the reported IC50 of each item.

Noted for COc1cc(-c2cc3c(cc2F)-c2ccc(N(C)[C@@H]4C[C@H]5CC[C@@H](C4)N5)nc2OC3)cnn1 : its IC50 reads < 100 nM

Noted for COc1cc(-c2ccc3c(c2)COc2nc(N4CCN[C@@H](C5CC5)C4)ccc2-3)cnn1 : its IC50 reads 100 to 1000 nM

Noted for c1cnn(-c2ccc3c(c2)COc2nc(N(C4CCNCC4)C4CC4)ccc2-3)c1 : its IC50 reads 1000 to 10000 nM

Noted for c1cnn(-c2ccc3c(c2)COc2nc(N4CCC5(CCCNC5)C4)ccc2-3)c1 (centres unmarked) : its IC50 reads > 10000 nM

Noted for COc1cc(-c2ccc3c(c2)COc2nc(N4CCC(N5CCCC5)C4)ccc2-3)cnn1 (centres unmarked) : its IC50 reads 100 to 1000 nM

Noted for CC1(C)CC(Oc2ccc3c(n2)OCc2cc(-n4cccn4)ccc2-3)CC(C)(C)N1 : its IC50 reads 1000 to 10000 nM

Noted for CC(C)(C)N[C@@H]1CCN(c2ccc3c(n2)OCc2cc(-c4cn[nH]c4)ccc2-3)C1 : its IC50 reads < 100 nM

Noted for COc1cc(-c2ccc3c(c2)COc2nc(N4CCC(NC5CC5)C4)ccc2-3)cnn1 (centres unmarked) : its IC50 reads 100 to 1000 nM

---

# System: MYB
# experiment description: RT-qPCR splicing assay, MYB AJ/CJ mRNA
# Assay type: cell-based
# measurement conditions: Homo sapiens, increase in alternative junction mRNA, A673 or K562 cells, 24 hours
measured quantity: AC50

Noted for COc1cc(-c2ccc3c(c2)COc2nc(O[C@@H]4C[C@H]5CC[C@@H](C4)N5)ccc2-3)cnn1 : its AC50 reads < 100 nM

Noted for [2H]C([2H])([2H])N(c1ccc2c(n1)OCc1cc(-n3cccn3)ccc1-2)C1CC(C)(C)NC(C)(C)C1 : its AC50 reads > 10000 nM

Noted for Cc1[nH]ncc1-c1ccc2c(c1)COc1nc(N(C)[C@@H]3C[C@H]4CC[C@@H](C3)N4)ccc1-2 : its AC50 reads < 100 nM

Noted for CC1(C)CC(Nc2ccc3c(n2)CCOc2cc(-n4cccn4)ccc2-3)CC(C)(C)N1 : its AC50 reads > 10000 nM

Noted for COc1cc(-c2ccc3c(c2)COc2nc(N4CCNC(C(C)(C)C)C4)ccc2-3)cnn1 (stereo not drawn) : its AC50 reads 100 to 1000 nM

Noted for COc1cc(-c2ccc3c(c2)COc2nc(OC4CC(C)(C)NC(C)(C)C4)ccc2-3)cnn1 : its AC50 reads > 10000 nM

Noted for c1cnn(-c2ccc3c(c2)COc2nc(N4CCC5(CCNCC5)C4)ccc2-3)c1 : its AC50 reads > 10000 nM

Noted for CC(C)(C)NC1CCN(c2ccc3c(n2)OCc2cc(-c4c(F)cn[nH]c4=O)ccc2-3)C1 (stereo not drawn) : its AC50 reads > 10000 nM

Noted for CN(c1ccc2c(n1)COc1cc(-n3cccn3)ccc1-2)C1CC(C)(C)NC(C)(C)C1 : its AC50 reads > 10000 nM

Noted for CC1(C)CC(Oc2ccc3c(n2)OCc2cc(-n4cccn4)ccc2-3)CCN1 (stereo not drawn) : its AC50 reads > 10000 nM

Noted for CN(c1ccc2c(n1)OCc1cc(-n3nccn3)ccc1-2)[C@@H]1C[C@H]2CC[C@@H](C1)N2 : its AC50 reads 100 to 1000 nM

Noted for CN(c1ccc2c(n1)OCc1cc(-c3cc(=O)n(C)cn3)ccc1-2)[C@@H]1C[C@H]2CC[C@@H](C1)N2 : its AC50 reads < 100 nM

Noted for CCN(c1ccc2c(n1)OCc1cc(-n3cccn3)ccc1-2)C1CC(C)(C)NC(C)(C)C1 : its AC50 reads > 10000 nM

Noted for COc1cc(-c2ccc3c(c2)COc2nc(N(C)[C@@H]4C[C@H]5COC[C@@H](C4)N5)ccc2-3)cnn1 : its AC50 reads < 100 nM

Noted for CN(c1ccc2c(n1)OCc1cc(-n3ccnc3)ccc1-2)[C@@H]1C[C@H]2CC[C@@H](C1)N2 : its AC50 reads < 100 nM
